molecular target: T1, human plasma kallikrein (human, UniProt P03952 20-390; P03952 391-638); experiment: ELISA, biotinylated pKal signal over streptavidin background
T1 construct: two disulfide-linked chains; NP_000883.2; also called pKal; hpKal
T1 sequence (P03952 20-390 limits assumed, chain 1 of 2): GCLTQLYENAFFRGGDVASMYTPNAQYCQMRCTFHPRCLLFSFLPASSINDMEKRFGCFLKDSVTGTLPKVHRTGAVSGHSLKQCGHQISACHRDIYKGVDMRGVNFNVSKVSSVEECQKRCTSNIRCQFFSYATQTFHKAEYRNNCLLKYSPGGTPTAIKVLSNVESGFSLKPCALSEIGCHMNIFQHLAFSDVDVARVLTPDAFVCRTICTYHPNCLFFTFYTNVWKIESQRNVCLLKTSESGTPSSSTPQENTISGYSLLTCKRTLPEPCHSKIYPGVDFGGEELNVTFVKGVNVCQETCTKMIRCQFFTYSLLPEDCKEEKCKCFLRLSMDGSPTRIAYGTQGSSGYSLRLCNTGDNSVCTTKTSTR
T1 sequence (P03952 391-638 limits assumed, chain 2 of 2): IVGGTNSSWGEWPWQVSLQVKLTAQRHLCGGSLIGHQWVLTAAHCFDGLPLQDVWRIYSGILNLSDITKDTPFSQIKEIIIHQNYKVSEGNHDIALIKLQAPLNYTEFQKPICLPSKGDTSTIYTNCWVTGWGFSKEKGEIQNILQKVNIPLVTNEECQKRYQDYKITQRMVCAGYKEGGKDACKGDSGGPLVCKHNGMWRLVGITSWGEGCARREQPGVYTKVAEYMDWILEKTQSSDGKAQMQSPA
observation-type: ELISA (T/B)
Keep the answer to the number alone.

Please review the following examples before continuing.
M10-F10 (Fab, V domains shown) VH: EVQLLESGGGLVQPGGSLRLSCAASGFTFSFYNMNWVRQAPGKGLEWVSSISPSGGETNYADSVKGRFTISRDNSKNTLYLQMNSLRAEDTAVYYCARGGGAYRNNWWGGFDIWGLGTMVTVSS VL: DIQMTQSPSSLSASVGDRVTITCRASQSISVYLNWYQHKPGKAPKLLIYGASNLQFGVPSRFSGSGYGTDFTLTISSLQPEDFATYHCQQTFSLFTFGGGTKVEIK: 39.2
M7-B04 (Fab, V domains shown) VH: EVQLLESGGGLVQPGGSLRLSCAASGFTFSWYSMVWVRQAPGKGLEWVSSISPSGGLTNYADSVKGRFTISRDNSKNTLYLQMNSLRAEDTAVYYCARHTAARPFYYYYMDVWGKGTTVTVSS VL: QSALTQPASVSGSPGQSITISCTGTNSDVGNYNLVSWYQQHPGEAPKLLIYEVNKRPSGVSNRFSGSKSGNTASLTISGLQAEDEADYLCCSYAGNRNFYVFGAGTKVTVL: 4.1

Let us move to another entry and its ELISA (T/B).
ELISA (T/B) lookup needed for M142-H08 (antibody, V domains shown, tested as Fab (Ki,app) and as human IgG (SPR); the IgG is cleaved in HC CDR3 after WFR) VH: EVQLLESGGGLVQPGGSLRLSCAASGFTFSAYSMIWVRQAPGKGLEWVSYIRPSGGRTTYADSVKGRFTISRDNSKNTLYLQMNSLRAEDTAVYYCARGGLLLWFRELKSNYFDYWGQGTLVTVSS VL: DIQMTQSPSSLSAFVGDRVTITCRASQPIDNYLNWYHQKPGKAPKLLIYAASRLQSGVPSRLSGSGFGTDFTLTISSLQPEDFGNYYCQQSYTVPYTFGGGTKVEIR , thanks.
29.9
